From: patent US5130339A

// reported selectivity ratio (EC50 uterus / EC50 colon) per item
tested on: isolated rat uterus; assay: Effect on spontaneous uterus motility, same general method on isolated rat uterus (in vitro); type: cell-based; details: colon versus uterus
Write the value as a bare number.

# molecule, endpoint_result
rows = [
    ("Oc1ccc2c(c1)CC(NCC(O)c1cccc(Cl)c1)CC2 (stereo not shown)", 1),
]

IN: Given COc1ccc2c(c1)CC(CNCC(O)c1cccc(Cl)c1)CC2.Cl (stereo not shown) , state its recorded selectivity ratio (EC50 uterus / EC50 colon).
OUT: 57
